// data source = ChEMBL document CHEMBL1146350

Test system: Escherichia coli
Test: Antibacterial activity against Escherichia coli ATCC 25922 by disc diffusion method; note: test concentration or dose not given here
Type: functional

compound	inhibition zone (IZ) / mm
CCc1nn2c(=O)c3c4c(sc3nc2s1)CCCC4	10
Nn1c(SCC(=O)c2ccccc2)nc2sc3c(c2c1=O)CCCC3	8
Cc1nn2c(=O)c3c4c(sc3nc2s1)CCCC4	18
CN[C@@H]1[C@H](O[C@H]2[C@H](O[C@H]3[C@H](O)[C@@H](O)[C@H](N=C(N)N)[C@@H](O)[C@@H]3N=C(N)N)O[C@@H](C)[C@]2(O)C=O)O[C@@H](CO)[C@H](O)[C@H]1O (stereo in doubt)	20
O=c1c2c3c(sc2nc2sc(Cc4ccccc4)nn12)CCCC3	10
O=c1c2c3c(sc2nc2sc(-c4ccccc4)nn12)CCCC3	9
Cc1cccc(-c2nn3c(=O)c4c5c(sc4nc3s2)CCCC5)c1	8
O=c1c2c3c(sc2nc2sc(-c4ccc([N+](=O)[O-])cc4)nn12)CCCC3	8
O=c1c2c3c(sc2nc2sc(-c4cc(Cl)cc(Cl)c4)nn12)CCCC3	8
